Assignment: determine reported Drug uptake for the given compounds.
Tested on: Medulla
TEST: Drug uptake in anesthetized cynomolgus monkey brain medulla after 9.5 mins postinjection
Assay type: ADME, organism-based, Macaca fascicularis
STATED_CONDITIONS: in vivo
The answer should be written as a number, with no unit following it.

Problem: Answer briefly: Drug uptake recorded on Medulla for O=C(OCCC[18F])C1C2CCC(CC1c1cccc(/C=C\Br)c1)N2 (stereo not given)
Result: 5.63

Problem: Answer briefly: Drug uptake recorded on Medulla for O=C(OCC[18F])C1C2CCC(CC1c1cccc(/C=C\I)c1)N2 (stereo not given)
Result: 3.15

Problem: Answer briefly: Drug uptake recorded on Medulla for O=C(OCCC[18F])C1C2CCC(CC1c1cccc(/C=C\I)c1)N2 (stereo not given)
Result: 3.97

Problem: Answer briefly: Drug uptake recorded on Medulla for O=C(OCC[18F])C1C2CCC(CC1c1ccc(/C=C\I)cc1)N2 (stereo not given)
Result: 2.45

Problem: Answer briefly: Drug uptake recorded on Medulla for O=C(OCC[18F])C1C2CCC(CC1c1cccc(/C=C\Br)c1)N2 (stereo not given)
Result: 3.76

###

Test system: Caudate
TEST: Drug uptake in anesthetized cynomolgus monkey brain caudate after 125 mins postinjection
Type: ADME, organism-based, Macaca fascicularis, Caudate nucleus
STATED_CONDITIONS: in vivo
Is Drug uptake at least 4? Then label 1. If not, label 0.

Problem: Please indicate if the recorded Drug uptake for O=C(OCC[18F])C1C2CCC(CC1c1cccc(/C=C\I)c1)N2 (stereo not given) meets or exceeds 4.
Result: label 0

Problem: Please indicate if the recorded Drug uptake for O=C(OCC[18F])C1C2CCC(CC1c1ccc(/C=C\I)cc1)N2 (stereo not given) meets or exceeds 4.
Result: label 0

Problem: Please indicate if the recorded Drug uptake for O=C(OCCC[18F])C1C2CCC(CC1c1cccc(/C=C\I)c1)N2 (stereo not given) meets or exceeds 4.
Result: label 0

Problem: Please indicate if the recorded Drug uptake for O=C(OCC[18F])C1C2CCC(CC1c1cccc(/C=C\Br)c1)N2 (stereo not given) meets or exceeds 4.
Result: label 0

Problem: Please indicate if the recorded Drug uptake for O=C(OCCC[18F])C1C2CCC(CC1c1cccc(/C=C\Br)c1)N2 (stereo not given) meets or exceeds 4.
Result: label 1

###

TEST: Ratio of drug uptake in midbrain to cerebellum in anesthetized cynomolgus monkey after 145 mins postinjection
Assay type: ADME, organism-based, Macaca fascicularis
STATED_CONDITIONS: in vivo
RECORDED_ENDPOINT: Ratio
The answer should be written as a number, with no unit following it.

Problem: Kindly indicate its recorded Ratio. Item: O=C(OCCC[18F])C1C2CCC(CC1c1cccc(/C=C\I)c1)N2 (centres undefined)
Result: 1.8

Problem: Kindly indicate its recorded Ratio. Item: O=C(OCC[18F])C1C2CCC(CC1c1cccc(/C=C\I)c1)N2 (centres undefined)
Result: 2.1

Problem: Kindly indicate its recorded Ratio. Item: O=C(OCCC[18F])C1C2CCC(CC1c1cccc(/C=C\Br)c1)N2 (centres undefined)
Result: 1.8

Problem: Kindly indicate its recorded Ratio. Item: O=C(OCC[18F])C1C2CCC(CC1c1cccc(/C=C\Br)c1)N2 (centres undefined)
Result: 2

###

Test system: Caudate
TEST: Drug uptake in anesthetized cynomolgus monkey brain caudate after 225 mins postinjection
Type: ADME, organism-based, Macaca fascicularis, Caudate nucleus
STATED_CONDITIONS: in vivo, 3.75 h
Drug uptake under 3 gets True, anything at or over 3 gets False.

Problem: Dear reviewer, please state whether O=C(OCCC[18F])C1C2CCC(CC1c1cccc(/C=C\I)c1)N2 (stereo not given) has Drug uptake strictly beneath 3.
Result: True

Problem: Dear reviewer, please state whether O=C(OCC[18F])C1C2CCC(CC1c1cccc(/C=C\I)c1)N2 (stereo not given) has Drug uptake strictly beneath 3.
Result: True

Problem: Dear reviewer, please state whether O=C(OCC[18F])C1C2CCC(CC1c1ccc(/C=C\I)cc1)N2 (stereo not given) has Drug uptake strictly beneath 3.
Result: True

Problem: Dear reviewer, please state whether O=C(OCCC[18F])C1C2CCC(CC1c1cccc(/C=C\Br)c1)N2 (stereo not given) has Drug uptake strictly beneath 3.
Result: False

###

Assignment: determine reported Drug uptake for the given molecules.
System: Medulla
TEST: Drug uptake in anesthetized cynomolgus monkey brain medulla after 235 mins postinjection
Assay type: ADME, organism-based, Macaca fascicularis
STATED_CONDITIONS: in vivo
The answer should be written as a number, with no unit following it.

Problem: Kindly indicate its recorded Drug uptake. Item: O=C(OCC[18F])C1C2CCC(CC1c1ccc(/C=C\I)cc1)N2 (stereo not given)
Result: 3.3

Problem: Kindly indicate its recorded Drug uptake. Item: O=C(OCC[18F])C1C2CCC(CC1c1cccc(/C=C\Br)c1)N2 (stereo not given)
Result: 2.72

Problem: Kindly indicate its recorded Drug uptake. Item: O=C(OCCC[18F])C1C2CCC(CC1c1cccc(/C=C\Br)c1)N2 (stereo not given)
Result: 3.34

Problem: Kindly indicate its recorded Drug uptake. Item: O=C(OCC[18F])C1C2CCC(CC1c1cccc(/C=C\I)c1)N2 (stereo not given)
Result: 2.32

Problem: Kindly indicate its recorded Drug uptake. Item: O=C(OCCC[18F])C1C2CCC(CC1c1cccc(/C=C\I)c1)N2 (stereo not given)
Result: 3.15

###

System: Pons
TEST: Drug uptake in anesthetized cynomolgus monkey brain pons after 45 mins postinjection
Assay type: ADME, organism-based, Macaca fascicularis
STATED_CONDITIONS: in vivo, 0.75 h
RECORDED_ENDPOINT: Drug uptake

Problem: Kindly indicate its recorded Drug uptake. Item: O=C(OCC[18F])C1C2CCC(CC1c1cccc(/C=C\I)c1)N2 (stereo not given)
Result: 3.34

Problem: Kindly indicate its recorded Drug uptake. Item: O=C(OCCC[18F])C1C2CCC(CC1c1cccc(/C=C\I)c1)N2 (stereo not given)
Result: 4.5

Problem: Kindly indicate its recorded Drug uptake. Item: O=C(OCC[18F])C1C2CCC(CC1c1cccc(/C=C\Br)c1)N2 (stereo not given)
Result: 4.45

Problem: Kindly indicate its recorded Drug uptake. Item: O=C(OCCC[18F])C1C2CCC(CC1c1cccc(/C=C\Br)c1)N2 (stereo not given)
Result: 4.85

Problem: Kindly indicate its recorded Drug uptake. Item: O=C(OCC[18F])C1C2CCC(CC1c1ccc(/C=C\I)cc1)N2 (stereo not given)
Result: 3.09

###

TEST: Drug uptake in anesthetized cynomolgus monkey brain frontal lobe after 27.5 mins postinjection
Type: ADME, organism-based, Macaca fascicularis
STATED_CONDITIONS: in vivo
Assignment: determine reported Drug uptake for the given molecules.
The answer should be written as a number, with no unit following it.

Problem: Kindly indicate its recorded Drug uptake. Item: O=C(OCCC[18F])C1C2CCC(CC1c1cccc(/C=C\I)c1)N2 (stereo not given)
Result: 2.72

Problem: Kindly indicate its recorded Drug uptake. Item: O=C(OCC[18F])C1C2CCC(CC1c1ccc(/C=C\I)cc1)N2 (stereo not given)
Result: 1.76

Problem: Kindly indicate its recorded Drug uptake. Item: O=C(OCC[18F])C1C2CCC(CC1c1cccc(/C=C\I)c1)N2 (stereo not given)
Result: 2.82

Problem: Kindly indicate its recorded Drug uptake. Item: O=C(OCCC[18F])C1C2CCC(CC1c1cccc(/C=C\Br)c1)N2 (stereo not given)
Result: 3.8

Problem: Kindly indicate its recorded Drug uptake. Item: O=C(OCC[18F])C1C2CCC(CC1c1cccc(/C=C\Br)c1)N2 (stereo not given)
Result: 2.69

###

Assignment: determine reported Drug uptake for the given molecules.
TEST: Drug uptake in anesthetized cynomolgus monkey brain frontal lobe after 235 mins postinjection
Format: ADME, organism-based, Macaca fascicularis
STATED_CONDITIONS: in vivo

Problem: Kindly indicate its recorded Drug uptake. Item: O=C(OCCC[18F])C1C2CCC(CC1c1cccc(/C=C\I)c1)N2 (stereo not given)
Result: 1.78

Problem: Kindly indicate its recorded Drug uptake. Item: O=C(OCCC[18F])C1C2CCC(CC1c1cccc(/C=C\Br)c1)N2 (stereo not given)
Result: 2.01

Problem: Kindly indicate its recorded Drug uptake. Item: O=C(OCC[18F])C1C2CCC(CC1c1ccc(/C=C\I)cc1)N2 (stereo not given)
Result: 1.51

Problem: Kindly indicate its recorded Drug uptake. Item: O=C(OCC[18F])C1C2CCC(CC1c1cccc(/C=C\Br)c1)N2 (stereo not given)
Result: 1.87

Problem: Kindly indicate its recorded Drug uptake. Item: O=C(OCC[18F])C1C2CCC(CC1c1cccc(/C=C\I)c1)N2 (stereo not given)
Result: 1.39

###

System: Caudate
TEST: Drug uptake in anesthetized cynomolgus monkey brain caudate after 0.5 mins postinjection
Assay type: ADME, organism-based, Macaca fascicularis, Caudate nucleus
STATED_CONDITIONS: in vivo
Assignment: determine reported Drug uptake for the given molecules.

Problem: Kindly indicate its recorded Drug uptake. Item: O=C(OCC[18F])C1C2CCC(CC1c1cccc(/C=C\Br)c1)N2 (stereo not given)
Result: 0

Problem: Kindly indicate its recorded Drug uptake. Item: O=C(OCCC[18F])C1C2CCC(CC1c1cccc(/C=C\Br)c1)N2 (stereo not given)
Result: 0.01

Problem: Kindly indicate its recorded Drug uptake. Item: O=C(OCCC[18F])C1C2CCC(CC1c1cccc(/C=C\I)c1)N2 (stereo not given)
Result: 0.01

Problem: Kindly indicate its recorded Drug uptake. Item: O=C(OCC[18F])C1C2CCC(CC1c1cccc(/C=C\I)c1)N2 (stereo not given)
Result: 0

Problem: Kindly indicate its recorded Drug uptake. Item: O=C(OCC[18F])C1C2CCC(CC1c1ccc(/C=C\I)cc1)N2 (stereo not given)
Result: 0
